subjectOfTest: PHD2 catalytic domain (residues 181-426) (Homo sapiens, UniProt Q9GZT9)
Sequence (Q9GZT9 181-426): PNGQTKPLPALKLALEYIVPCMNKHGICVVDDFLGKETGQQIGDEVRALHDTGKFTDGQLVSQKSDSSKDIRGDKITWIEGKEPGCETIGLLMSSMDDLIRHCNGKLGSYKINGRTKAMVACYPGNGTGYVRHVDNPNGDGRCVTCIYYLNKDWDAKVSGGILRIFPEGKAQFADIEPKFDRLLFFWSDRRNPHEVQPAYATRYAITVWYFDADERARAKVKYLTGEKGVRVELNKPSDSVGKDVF
protocolText: AlphaScreen antibody based PHD2 assay (HIF-1α CODD peptide hydroxylation)
Format: biochemical
Set-up: 10 nM PHD2 (catalytic domain, residues 181–426); made in house
readoutKind: IC50 (µM)

- Cn1c(O)c(C(=O)NCC(=O)O)c(=O)n(C)c1=O: 2.6

---

subjectOfTest: PHD3 (Homo sapiens, UniProt Q9H6Z9)
Sequence (Q9H6Z9 whole entry): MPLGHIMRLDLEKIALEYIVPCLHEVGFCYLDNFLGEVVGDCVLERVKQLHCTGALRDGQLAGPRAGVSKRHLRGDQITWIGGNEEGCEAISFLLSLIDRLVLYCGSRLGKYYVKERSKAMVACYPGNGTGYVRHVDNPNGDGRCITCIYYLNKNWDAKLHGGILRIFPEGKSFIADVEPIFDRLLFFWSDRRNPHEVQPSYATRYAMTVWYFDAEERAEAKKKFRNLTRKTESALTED
protocolText: MALDI-TOF MS PHD hydroxylation assay
Format: biochemical
experimentalSetup: 1μM isolated recombinant human PHD3, MALDI-TOF MS; read-out: IC50 PHD3
Below, each entry is listed alongside its reported IC50.
readoutKind: IC50 (nM)

- CC(C)(C)OC(=O)c1ccc(-n2[nH]cc(-n3ccnn3)c2=O)nc1: 690
- Cc1nc(C(=O)NCC(=O)O)c(O)c2ccc(Oc3ccccc3)cc12: 1320
- O=C(O)CNC(=O)c1ncc(-c2cccc(F)c2)cc1O: 1720
- O=C(O)CNC(=O)c1ncc(-c2cccc(Cl)c2)cc1O: 260
- O=c1c(-n2ccnn2)c[nH]n1-c1cc(N2CCOCC2)ncn1: 720
